Hello, the source for this data is patent US20240254087A1, in case you need it.

5-HT1D (Homo sapiens, UniProt P28221) measurements of pKi, listed per entry.
Sequence (P28221 whole entry, species assumed): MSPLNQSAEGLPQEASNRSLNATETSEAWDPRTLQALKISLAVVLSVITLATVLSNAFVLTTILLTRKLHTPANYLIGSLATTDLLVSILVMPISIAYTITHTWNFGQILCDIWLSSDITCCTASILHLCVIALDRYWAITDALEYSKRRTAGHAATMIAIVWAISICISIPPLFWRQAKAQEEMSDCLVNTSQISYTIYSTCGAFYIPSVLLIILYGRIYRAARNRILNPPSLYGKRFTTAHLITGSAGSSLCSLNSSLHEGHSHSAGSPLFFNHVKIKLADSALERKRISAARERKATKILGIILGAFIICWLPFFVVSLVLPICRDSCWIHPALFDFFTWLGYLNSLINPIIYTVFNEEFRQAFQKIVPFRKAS
pKi: −log10 of the molar value.

[
  {
    "compound": "COc1cc([N+](=O)[O-])c(OC)cc1CCN [2C-N (1), reference compound]",
    "pKi": 6.08
  },
  {
    "compound": "COc1cc([N+](=O)[O-])c(OC)cc1CCNCc1ccccc1-c1ccccc1 [25N-NBPh (17)]",
    "pKi": 5.92
  },
  {
    "compound": "COc1cc([N+](=O)[O-])c(OC)cc1CCNCc1ccc(C)cc1 [25N-NB-4-Me (23)]",
    "pKi": "< 5.00"
  },
  {
    "compound": "COc1cc([N+](=O)[O-])c(OC)cc1CCNCc1ccccc1C(F)(F)F [25N-NBCF3 (14)]",
    "pKi": "< 5.00"
  },
  {
    "compound": "COc1ccc(OC)c(CNCCc2cc(OC)c([N+](=O)[O-])cc2OC)c1 [25N-NB-2,5-DiMeO (20)]",
    "pKi": "< 5.00"
  },
  {
    "compound": "COc1cc([N+](=O)[O-])c(OC)cc1CCNCc1cccc(C)c1O [25N-NB-2-OH-3-Me (18)]",
    "pKi": 5.89
  },
  {
    "compound": "COc1cc([N+](=O)[O-])c(OC)cc1CCNCc1cccc(F)c1OC [25N-NB-2-MeO-3-F (19)]",
    "pKi": "< 5.00"
  },
  {
    "compound": "COc1cc([N+](=O)[O-])c(OC)cc1CCNCc1cccc(F)c1 [25N-NB-3-F (24)]",
    "pKi": "< 5.00"
  }
]

---

- tgt: 5-HT2A (Homo sapiens, UniProt P28223)
- Sequence (P28223 whole entry): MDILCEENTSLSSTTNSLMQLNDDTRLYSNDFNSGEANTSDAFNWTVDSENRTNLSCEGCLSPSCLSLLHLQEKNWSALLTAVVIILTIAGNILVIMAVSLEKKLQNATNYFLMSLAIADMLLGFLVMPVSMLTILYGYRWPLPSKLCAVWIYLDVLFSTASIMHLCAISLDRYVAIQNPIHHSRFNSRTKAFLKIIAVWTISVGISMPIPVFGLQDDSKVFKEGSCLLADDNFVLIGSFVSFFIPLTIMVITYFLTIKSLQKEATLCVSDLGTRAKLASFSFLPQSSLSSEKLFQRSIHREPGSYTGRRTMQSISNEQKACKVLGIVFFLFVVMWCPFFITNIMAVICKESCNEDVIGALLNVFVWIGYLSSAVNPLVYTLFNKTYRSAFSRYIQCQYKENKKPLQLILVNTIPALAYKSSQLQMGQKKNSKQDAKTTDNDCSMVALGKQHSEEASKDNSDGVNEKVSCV
- assay-procedure: [3H]-ketanserin displacement, 5-HT2A membranes
- Format: binding
- Design: ES-313-M400UA (membranes); host or cells: CHO-K1
- condition: [3H]-ketanserin displacement (n = 2); read-out: 5-HT2A pKi Mean ± SEM (converted)
Collected log10(Ki) values appear next to each entry.
observed-property: log10(Ki) (log10 of the value in nM)

[
  {
    "molecule": "COc1cc(OC)c(OC)cc1CCNCc1ccc(-c2cccs2)s1 [(77)]",
    "tgt": "5-HT2A (Homo sapiens, UniProt P28223)",
    "log10(Ki)": 2.51
  },
  {
    "molecule": "COc1cc(OC)c(OC)cc1CCNCc1cccc(C(C)(C)C)c1 [(71)]",
    "tgt": "5-HT2A (Homo sapiens, UniProt P28223)",
    "log10(Ki)": 2.58
  },
  {
    "molecule": "COc1cc(OC)c(OC)cc1CCNCc1ccccc1C1CC1 [(70)]",
    "tgt": "5-HT2A (Homo sapiens, UniProt P28223)",
    "log10(Ki)": 1.85
  },
  {
    "molecule": "COc1cc(OC)c(OC)cc1CCNCc1cccc(OCc2ccccc2)c1 [(78)]",
    "tgt": "5-HT2A (Homo sapiens, UniProt P28223)",
    "log10(Ki)": 2.40
  },
  {
    "molecule": "COc1cc(OC)c(OC)cc1CCNCc1cccc(C)c1O [(68)]",
    "tgt": "5-HT2A (Homo sapiens, UniProt P28223)",
    "log10(Ki)": 1.49
  },
  {
    "molecule": "COc1cc(OC)c(OC)cc1CCNCc1cccc2ccsc12 [(73)]",
    "tgt": "5-HT2A (Homo sapiens, UniProt P28223)",
    "log10(Ki)": 1.47
  },
  {
    "molecule": "COc1cc(OC)c(OC)cc1CCNCc1c[nH]nc1-c1ccccc1 [(80)]",
    "tgt": "5-HT2A (Homo sapiens, UniProt P28223)",
    "log10(Ki)": 2.48
  },
  {
    "molecule": "COc1cccc(COc2ccccc2CNCCc2cc(OC)c(OC)cc2OC)c1 [(79)]",
    "tgt": "5-HT2A (Homo sapiens, UniProt P28223)",
    "log10(Ki)": 2.20
  },
  {
    "molecule": "COc1cc(OC)c(OC)cc1CCNCc1ccc(F)c2ccccc12 [(67)]",
    "tgt": "5-HT2A (Homo sapiens, UniProt P28223)",
    "log10(Ki)": 1.70
  },
  {
    "molecule": "COc1cc(OC)c(OC)cc1CCNCc1ccc(-c2ccccc2)o1 [(75)]",
    "tgt": "5-HT2A (Homo sapiens, UniProt P28223)",
    "log10(Ki)": 2.49
  }
]

---

- System: 5-HT2A
- assay-procedure: Ca2+ flux assay, 5-HT2A
- Assay type: cell-based, human
- condition: Gq/11 Ca2+ mobilization; higher number = skewed towards 5-HT2A
observed-property: 5-HT2A/5-HT2c Selectivity Factor ΔLog(Emax/EC50)

[
  {
    "compound": "COc1cc([N+](=O)[O-])c(OC)cc1CCNCc1ccccc1I [25N-NBI (10)]",
    "quantitative-result": 406
  },
  {
    "compound": "COc1cc([N+](=O)[O-])c(OC)cc1CCNCc1ccccc1OC [25N-NBOMe (4)]",
    "quantitative-result": 2.4
  },
  {
    "compound": "COc1cc([N+](=O)[O-])c(OC)cc1CCNCc1ccc(C)cc1 [25N-NB-4-Me (23)]",
    "quantitative-result": 66.1
  },
  {
    "compound": "COc1cc([N+](=O)[O-])c(OC)cc1CCN [2C-N (1), reference compound]",
    "quantitative-result": 19.1
  },
  {
    "compound": "COc1cc([N+](=O)[O-])c(OC)cc1CCNCc1ccccc1OC(F)(F)F [25N-NBOCF3 (12)]",
    "quantitative-result": 6.1
  },
  {
    "compound": "COc1cc([N+](=O)[O-])c(OC)cc1CCNCc1ccccc1F [25N-NBF (7)]",
    "quantitative-result": 18.9
  },
  {
    "compound": "COc1cc([N+](=O)[O-])c(OC)cc1CCNCc1ccccc1C(F)(F)F [25N-NBCF3 (14)]",
    "quantitative-result": 85.5
  },
  {
    "compound": "CCOc1ccccc1CNCCc1cc(OC)c([N+](=O)[O-])cc1OC [25N-NBOEt (5)]",
    "quantitative-result": 1.0
  },
  {
    "compound": "COc1cc([N+](=O)[O-])c(OC)cc1CCNCc1ccccc1Br [25N-NBBr (9)]",
    "quantitative-result": 61.9
  }
]

---

- tgt: 5-HT2A (Homo sapiens)
- assay-procedure: cell-based
- Design: expressed in transfected cells; host or cells: HEK293T, transient
- condition: read-out: 5-HT2A Gq Emax (% 5-HT), BRET, mean ± SEM
observed-property: Emax (%)

[
  {
    "compound": "COc1cc(OC)c(OC)cc1CCNCc1ccccc1OCc1ccccc1 [(61)]",
    "observed-property": "Emax",
    "unit-abbreviation": "%",
    "relation-sign": "<",
    "quantitative-result": 10
  },
  {
    "compound": "COc1cc(OC)c(OC)cc1CCNCc1cccc2c1oc1ccccc12 [(74)]",
    "observed-property": "Emax",
    "unit-abbreviation": "%",
    "relation-sign": "=",
    "quantitative-result": 40.2
  },
  {
    "compound": "COc1cc(Br)cc(OC)c1CCNCc1cccc(C)c1O [(42)]",
    "observed-property": "Emax",
    "unit-abbreviation": "%",
    "relation-sign": "=",
    "quantitative-result": 69.2
  },
  {
    "compound": "COc1cc(CCNCc2cccc3ccccc23)cc(OC)c1Br [(31)]",
    "observed-property": "Emax",
    "unit-abbreviation": "%",
    "relation-sign": "=",
    "quantitative-result": 20.3
  },
  {
    "compound": "COc1cc(OC)c(OC)cc1CCNCc1ccccc1Oc1ccccc1 [(60)]",
    "observed-property": "Emax",
    "unit-abbreviation": "%",
    "relation-sign": "=",
    "quantitative-result": 63.3
  },
  {
    "compound": "COc1cc(CCNC2CCc3ccccc32)c(OC)cc1C (centres unmarked) [(83)]",
    "observed-property": "Emax",
    "unit-abbreviation": "%",
    "relation-sign": "=",
    "quantitative-result": 50.7
  },
  {
    "compound": "COc1cc(OC)c(OC)cc1CCNCc1cccc(-c2ccccc2)c1O [(63)]",
    "observed-property": "Emax",
    "unit-abbreviation": "%",
    "relation-sign": "<",
    "quantitative-result": 10
  },
  {
    "compound": "CCOc1ccc(CCNCc2cccc3ccccc23)cc1OC [(37)]",
    "observed-property": "Emax",
    "unit-abbreviation": "%",
    "relation-sign": "=",
    "quantitative-result": 29.3
  },
  {
    "compound": "COc1cc(OC)c(OC)cc1CCNCc1cccc(I)c1F [(72)]",
    "observed-property": "Emax",
    "unit-abbreviation": "%",
    "relation-sign": "=",
    "quantitative-result": 60.7
  },
  {
    "compound": "COc1cc(CCNCc2cccc3ccccc23)c(OC)cc1C [25D-N1-Nap (27)]",
    "observed-property": "Emax",
    "unit-abbreviation": "%",
    "relation-sign": "=",
    "quantitative-result": 34.3
  },
  {
    "compound": "COc1cc(CCNC2Cc3ccccc3C2)c(OC)cc1C [(85)]",
    "observed-property": "Emax",
    "unit-abbreviation": "%",
    "relation-sign": "=",
    "quantitative-result": 53.5
  }
]
